Compiled log10(Ki) measurements on Carbonic anhydrase 1 (Homo sapiens) taken from the literature.
Scale: decimal log of Ki, Ki in nM.

compound `COCCOC(=O)c1cccc(S(=O)(=O)Nc2nnc(S(N)(=O)=O)s2)c1` , log10(Ki) observed: 1.18

compound `NS(=O)(=O)OCc1ccccc1` , log10(Ki) observed: 2.88

compound `O=C(CN(Cc1ccc([N+](=O)[O-])cc1)S(=O)(=O)c1c(F)c(F)c(F)c(F)c1F)NO` , log10(Ki) observed: 2.18

compound `O=C(NNC(=S)Nc1ccccc1)c1ccncc1` , log10(Ki) observed: 1.53

compound `O=C(CC[C@H](NC(=O)OCc1ccccc1)C(=O)Nc1ccc2c(c1)B(O)OC2)Nc1ccc2c(c1)B(O)OC2` , log10(Ki) observed: 3.25

compound `C[C@@H](O)[C@H](NC(=O)c1ccc(Cl)c(S(N)(=O)=O)c1)C(=O)O` , log10(Ki) observed: 2.51

compound `C[C@H](CCC(=O)Nc1ccccc1S(N)(=O)=O)[C@H]1CC[C@H]2[C@@H]3C(=O)C[C@@H]4CC(=O)CC[C@]4(C)[C@H]3CC(=O)[C@]12C` , log10(Ki) observed: 3.91

compound `O=C(NCCCNCCCCNCCCNC(=O)C(F)(F)F)C(F)(F)F` , log10(Ki) observed: 5.13

compound `O=C(OC[C@H]1O[C@@H](OC(=O)c2cc(O)c(O)c(OC(=O)c3cc(O)c(O)c(O)c3)c2)[C@H](OC(=O)c2cc(O)c(O)c(OC(=O)c3cc(O)c(O)c(O)c3)c2)[C@@H](OC(=O)c2cc(O)c(O)c(OC(=O)c3cc(O)c(O)c(O)c3)c2)[C@@H]1OC(=O)c1cc(O)c(O)c(OC(=O)c2cc(O)c(O)c(O)c2)c1)c1cc(O)c(O)c(OC(=O)c2cc(O)c(O)c(O)c2)c1` , log10(Ki) observed: 4.88

compound `NS(=O)(=O)c1ccc(/N=c2\scc(-c3ccc(Cl)cc3)n2-c2ccccc2)cc1` , log10(Ki) observed: 2.69

compound `NS(=O)(=O)c1ccc(/N=C/c2ccccc2)cc1` , log10(Ki) observed: 2.49

compound `CCCCNS(=O)(=O)NCCCC` , log10(Ki) observed: 3.82

compound `CN(CC(=O)NCCC(=O)Nc1nnc(S(N)(=O)=O)s1)C(=N)N` , log10(Ki) observed: 1.32

compound `C[C@H](CCC(=O)Nc1ccc(S(N)(=O)=O)cc1)[C@H]1CC[C@H]2[C@@H]3[C@H](O)C[C@@H]4C[C@H](O)CC[C@]4(C)[C@H]3C[C@H](O)[C@]12C` , log10(Ki) observed: 4.32

compound `NS(=O)(=O)c1ccc(C(=O)NNC(=S)N[C@@H]2O[C@H](CO)[C@H](O)[C@H](O)[C@H]2O)cc1` , log10(Ki) observed: 3.61

compound `NS(=O)(=O)c1ccc(NC(=O)CN(CCN(CCN(CC(=O)O)CC(=O)Nc2ccc(S(N)(=O)=O)cc2F)CC(=O)O)CC(=O)O)c(F)c1` , log10(Ki) observed: 2.13

compound `NS(=O)(=O)c1ccc(NC(=O)/C(Cl)=N/Nc2ccc(Cl)cc2)cc1` , log10(Ki) observed: 1.64

compound `CCCC(CCC)C(=O)NCc1ccc(S(N)(=O)=O)cc1` , log10(Ki) observed: 3.57

compound CC1CCCC2(C1)NC(=O)N(CC(=O)NCCc1ccc(S(N)(=O)=O)cc1)C2=O (stereo unspecified) , log10(Ki) observed: 2.49

compound `CCCCCCCCCCCCOS(N)(=O)=O` , log10(Ki) observed: 2.43

compound `C[C@H](CCC(=O)Oc1ccc2nc(S(N)(=O)=O)sc2c1)[C@H]1CC[C@H]2[C@@H]3[C@H](O)C[C@@H]4C[C@H](O)CC[C@]4(C)[C@H]3CC[C@]12C` , log10(Ki) observed: 1.67

compound `NS(=O)(=O)c1cc(C(=O)Nc2nnc(S)s2)ccc1Cl` , log10(Ki) observed: 1.18

compound `COc1cc(C(C)(C)C)c(O)c(C(C)(C)C)c1` , log10(Ki) observed: 4.80

compound `NCC(=O)NCC(=O)Nc1ccc(S(N)(=O)=O)cc1` , log10(Ki) observed: 4.18

compound `CC(=O)/C(=C\c1cccs1)C(=O)Nc1ccc(S(N)(=O)=O)cc1` , log10(Ki) observed: 1.69

compound `NS(=O)(=O)c1ccc(C(=O)NCC(=O)O)cc1` , log10(Ki) observed: 2.70

compound `COc1cc(/C=C/C(=O)OCCCCO[N+](=O)[O-])ccc1OC(=O)c1cccc(S(=O)(=O)Nc2nnc(S(N)(=O)=O)s2)c1` , log10(Ki) observed: 2.14

compound `CNCC(=O)Nc1c(S(N)(=O)=O)cc(S(N)(=O)=O)c(Cl)c1Cl` , log10(Ki) observed: 2.72

compound `c1ccc2c(c1)c1c(n2Cc2ccc(Cn3c4c(c5ccccc53)CCCC4)cc2)CCCC1` , log10(Ki) observed: 4.59

compound `NS(=O)(=O)c1ccc(CNC(=O)Cc2ccccc2F)cc1` , log10(Ki) observed: 2.43
